The measurements presented in this section are drawn from patent US20180111949A1.

- assay.overview: pH, quality research per Chinese Pharmacopoeia 2010 Part 2
- Assay type: physicochemical
- experimental.parameters: crystalline powder

molecule	pH
CO/N=C(\C(=O)N[C@@H]1C(=O)N2C(C(=O)[O-])=C(COC(N)=O)CS[C@H]12)c1ccco1.[Na+] [Comparative Example 1, Cefuroxime Sodium]	pH = 7.5
CO/N=C(\C(=O)N[C@@H]1C(=O)N2C(C(=O)[O-])=C(COC(N)=O)CS[C@H]12)c1ccco1.[Na+] [Example 2, Cefuroxime Sodium]	pH = 7.5
